tested on: 53BP1 TTD; assay: Histone peptide microarray, 53BP1 TTD; format: binding; details: 53BP1 TTD hits, average signal per peptide
Property: Avg Signal; scope: individual substances
PARAMETER: Avg Signal

[
  {
    "SUBSTANCE": "ARTK(Me3)QTARKpSTGGKAPRKQL-K(Biot)-NH2 [H3.1K4me3S10p]",
    "TARGET DESC": "53BP1 TTD",
    "PARAMETER": "Avg Signal",
    "NUMBER": 0.00608
  },
  {
    "SUBSTANCE": "ARTKQTARK(Me3)pSTGGKAPRKQL-K(Biot)-NH2 [H3.1K9me3S10p]",
    "TARGET DESC": "53BP1 TTD",
    "PARAMETER": "Avg Signal",
    "NUMBER": 0.1329
  },
  {
    "SUBSTANCE": "ARTK(Ac)QTARK(Ac)STGGKAPRKQL-K(Biot)-NH2 [Peptide H3.1K4acK9ac]",
    "TARGET DESC": "53BP1 TTD",
    "PARAMETER": "Avg Signal",
    "NUMBER": 0.05583
  },
  {
    "SUBSTANCE": "Ac-APRKQLATKAARK(Me)SAPSTGG--Peg-Biot [Peptide H3.3K27me1]",
    "TARGET DESC": "53BP1 TTD",
    "PARAMETER": "Avg Signal",
    "NUMBER": 0.1127
  }
]

* * *

Test system: ABClonal #A2355, anti-H3K4me1
Assay: Histone peptide microarray, ABclonal A2355;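 also: normalized to the highest peptide average per subarray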
Format: binding
Conditions: Abclonal A2355 (anti-H3K4me1) hits
Experimental: Peptide microarrays were fabricated using an Aushon 2470 microarrayer and used as described ([Cornett et al., 2017]) with the following modifications. Protein and antibody hybridization steps were performed in buffer containing 25 mM HEPES pH 7.5, 100 mM NaCl, 0.5% BSA (w/v), and 0.1% NP-40. Slides were washed 3 × 5 min in PBS supplemented with 0.1% Tween-20 between each hybridization step. […]
Where no end group is shown, it is not given here. Me2a = asymmetric dimethyl on Arg; Peg = not defined here
Grouping rule (Avg Signal): LOW: < 0.002; MID: ≥ 0.002 and < 0.03; HIGH: ≥ 0.03

[
  {
    "SUBSTANCE": "KSAPSpTGGVK(Me)KPHRYRPGT-G-K(Biot)-NH2 [H3.3K36meT32p]",
    "CLASS": "MID"
  },
  {
    "SUBSTANCE": "PEPAKSAPAPKKGSK(Ac)KAVTKAQKK-Peg-Biot (chain 2 KAVTKAQKK-{Peg-Biot}; not fully specified; reading uncertain) [Peptide H2BK15ac]",
    "CLASS": "LOW"
  },
  {
    "SUBSTANCE": "ARTK(Me2)QTARK(Me2)STGGKA-Peg-Biot [H3.1K4me2K9me2]",
    "CLASS": "HIGH"
  },
  {
    "SUBSTANCE": "ARTKQTAR(Me2a)K(Me)STGGKAPRKQL-K(Biot)-NH2 [H3.1R8me2aK9me1]",
    "CLASS": "MID"
  },
  {
    "SUBSTANCE": "ARTKQTARK(Ac)STGGK(Ac)APRK(Ac)QL-K(Biot)-NH2 [H3.1K9acK14acK18ac]",
    "CLASS": "MID"
  },
  {
    "SUBSTANCE": "AR(Me2a)pTK(Me3)QTARKSTGGKAPRKQL-K(Biot)-NH2 [H3.1R2me2aT3pK4me3]",
    "CLASS": "MID"
  },
  {
    "SUBSTANCE": "ATKAARKSAPATGGVK(Ac)KPHRYRPG-GK(Biotin)-OH [Peptide H3.1K36ac]",
    "CLASS": "LOW"
  },
  {
    "SUBSTANCE": "ARTKQTAR(Me2a)K(Me3)STGGKAPRKQL-K(Biot)-NH2 [H3.1R8me2aK9me3]",
    "CLASS": "LOW"
  },
  {
    "SUBSTANCE": "Ac-SGRGKGGK(Me)GLGKGGAKRHRKVLR-Peg-Biot [Peptide H4K8me1]",
    "CLASS": "MID"
  },
  {
    "SUBSTANCE": "Ac-SGRGK(Ac)QGGKARAKAKTR-Peg-Biot [Peptide H2AK5ac]",
    "CLASS": "MID"
  },
  {
    "SUBSTANCE": "Ac-GKGGAKRHRK(Me2)VLRDNIQ-Peg-Biot [Peptide H4K20me2]",
    "CLASS": "HIGH"
  },
  {
    "SUBSTANCE": "Ac-SGRGK(Me)GGK(Me)GLGK(Me)GGAKRHRKVLR-Peg-Biot [H4K5me1K8me1K12me1]",
    "CLASS": "HIGH"
  },
  {
    "SUBSTANCE": "ARTK(Me)QTARK(Ac)STGGKAPRK(Ac)QL-K(Biot)-NH2 [H3.1K4me1K9acK18ac]",
    "CLASS": "HIGH"
  },
  {
    "SUBSTANCE": "AR(Me2s)TK(Me2)QTARKSTGGKAPRKQL-K(Biot)-NH2 [H3.1R2me2sK4me2]",
    "CLASS": "HIGH"
  },
  {
    "SUBSTANCE": "Ac-APRKQLATK(Me)AARKSAPATGG-Peg-K(Biot)-NH2 [Peptide H3.1K23me1]",
    "CLASS": "HIGH"
  },
  {
    "SUBSTANCE": "ARTK(Ac)QTARKSTGGKAPRK(Ac)QL-K(Biot)-NH2 [H3.1K4acK18ac]",
    "CLASS": "LOW"
  },
  {
    "SUBSTANCE": "Ac-TARK(Me2)STGGKAPRKQLATKAARK(Me2)SAP-Peg-K(Biot)-NH2 [H3.1K9me2K27me2]",
    "CLASS": "LOW"
  },
  {
    "SUBSTANCE": "AR(Me2a)TK(Me2)QTARKSTGGKAPRKQL-K(Biot)-NH2 [H3.1R2me2aK4me2]",
    "CLASS": "HIGH"
  },
  {
    "SUBSTANCE": "Ac-IAQDFK(Me2)TDLRF-Peg-K(Biot)-NH2 [Peptide H3.1K79me2]",
    "CLASS": "LOW"
  },
  {
    "SUBSTANCE": "Ac-IAQDFK(Me3)TDLRF-Peg-K(Biot)-NH2 [Peptide H3.1K79me3]",
    "CLASS": "HIGH"
  },
  {
    "SUBSTANCE": "ARTKQTAR(Me2a)KSTGGKAPRKQL-Peg-Biot (chain 2 KSTGGKAPRKQL-{Peg-Biot}; not fully specified; reading uncertain) [Peptide H3.1R8me2a]",
    "CLASS": "LOW"
  },
  {
    "SUBSTANCE": "ARTKQTARK(Me2)STGGKAPRKQLATKAARK(Me)SAPAT-Peg-Biot [H3.1K9me2K27me1]",
    "CLASS": "HIGH"
  },
  {
    "SUBSTANCE": "Ac-SGRGK(Ac)GGK(Me)GLGK(Ac)GGAK(Ac)RHRKVLR-Peg-Biot [H4K5acK8me1K12acK16ac]",
    "CLASS": "MID"
  },
  {
    "SUBSTANCE": "Ac-pSGR(Me2a)GK(Ac)QGGKARAKAKTR-Peg-Biot [H2AS1pR3me2aK5ac]",
    "CLASS": "HIGH"
  },
  {
    "SUBSTANCE": "ARTKQTAR(Me)K(Me2)STGGKAPRKQL-K(Biot)-NH2 [H3.1R8me1K9me2]",
    "CLASS": "LOW"
  },
  {
    "SUBSTANCE": "Ac-SGRGK(Ac)GGKGLGK(Ac)GGAKRHRKVLR-Peg-Biot [Peptide H4K5acK12ac]",
    "CLASS": "MID"
  },
  {
    "SUBSTANCE": "Ac-SGRGK(Ac)GGKGLGKGGAKRHRK(Ac)VLR-Peg-Biot [Peptide H4K5acK20ac]",
    "CLASS": "LOW"
  },
  {
    "SUBSTANCE": "ARTK(Me3)QTARK(Me3)STGGKAPRKQL-K(Biot)-NH2 [H3.1K4me3K9me3]",
    "CLASS": "MID"
  },
  {
    "SUBSTANCE": "ARTKQTAR(Me)K(Me3)STGGKAPRKQL-K(Biot)-NH2 [H3.1R8me1K9me3]",
    "CLASS": "MID"
  },
  {
    "SUBSTANCE": "Ac-SGRGK(Me)GGK(Ac)GLGK(Me)GGAKRHRKVLR-Peg-Biot [H4K5me1K8acK12me1]",
    "CLASS": "MID"
  }
]
